Listed next: entries and their corresponding Relative Luciferase Units (RLU), CD80 Conc 5.0 nM.
testedTarget: CD28 (Homo sapiens, UniProt P10747)
assayProtocol: Jurkat/IL2 + CHO/OKT3 +/- PD-L1 reporter assay: PD-L1-dependent CD28 costimulation
Format: cell-based
Set-up: host or cells: Jurkat cells expressing an IL-2-luciferase reporter
statedConditions: Table E24; Jurkat/IL2 + CHO/OKT3/PD-L1; 5.0 nM
Form entry: value (RLU) — number only.

Sample records with Relative Luciferase Units (RLU), CD80 Conc 5.0 nM:
H18R/A26P/E35D/D46N/M47V/V68M/A71G/D90P (protein, UniProt P33681 35-288, looked up, variant H18R A26P E35D D46N M47V V68M A71G D90P, Fc fusion) T-lymphocyte activation …: VIHVTKEVKEVATLSCGRNVSVEELPQTRIYWQKDKKMVLTMMSGNVNIWPEYKNRTIFDITNNLSIMILGLRPSDEGTYECVVLKYEKPAFKREHLAEVTLSVKADFPTPSISDFEIPTSNIRRIICSTSGGFPEPHLSWLENGEELNAINTTVSQDPETELYAVSSKLDFNMTTNHSFMCLIKYGHLRVNQTFNWNTTKQEHFPDNLLPSWAITLISVNGIFVICCLTYCFAPRCRERRRNERLRRESVRPV	972
A26P/E35D/M47I/V68M/A71G/D90G (protein, UniProt P33681 35-288, looked up, variant A26P E35D M47I V68M A71G D90G) T-lymphocyte activation …: VIHVTKEVKEVATLSCGHNVSVEELPQTRIYWQKDKKMVLTMMSGDINIWPEYKNRTIFDITNNLSIMILGLRPSDEGTYECVVLKYEKGAFKREHLAEVTLSVKADFPTPSISDFEIPTSNIRRIICSTSGGFPEPHLSWLENGEELNAINTTVSQDPETELYAVSSKLDFNMTTNHSFMCLIKYGHLRVNQTFNWNTTKQEHFPDNLLPSWAITLISVNGIFVICCLTYCFAPRCRERRRNERLRRESVRPV	823

Any idea what Relative Luciferase Units (RLU), CD80 Conc 5.0 nM was measured for H18Y/A26P/E35D/M47T/V68M/A71G (protein) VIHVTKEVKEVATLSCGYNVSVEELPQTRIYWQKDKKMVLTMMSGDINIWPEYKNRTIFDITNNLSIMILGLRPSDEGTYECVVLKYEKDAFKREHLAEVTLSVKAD ? 761

Data provenance is patent US20220177587A1.
